This collection of values is drawn from patent US6858210B1.

ASSAY_TARGET: affinity purified β2GPI-dependent antiphospholipid antibody
PROTOCOL: Competitive inhibition ELISA: recombinant β2GPI proteins compete for antibody binding to coated full length recombinant β2GPI
Parameters: species or system human
CONDITION_PARAMETERS: Ab 6644; read-out: 50% (concentration to give 50% inhibition)
Procedure: Microtiter plates (MaxiSorp™, Nalge Nunc International, Denmark) were coated with 50 μl of full length recombinant β2GPI at 10 μg/ml in 0.1 M bicarbonate, pH 9.5, incubated overnight at 4° C., washed three times with 0.15 M PBS, pH 7.2, and blocked for one hour at room temperature with 75 μl of 2% Non-fat Dried Milk (Carnation, 2% NFDM). […] The Optical Density, at 550 nm, was determined by reading the plates in a microplate autoreader (Bio-Teck Instruments, model EL3 11). […]
MEASURE_NAME: IC50

Field: example entries. Status: answers known.
1. ---45: recombinant β2GPI deletion mutant with domains 4, 5 (protein) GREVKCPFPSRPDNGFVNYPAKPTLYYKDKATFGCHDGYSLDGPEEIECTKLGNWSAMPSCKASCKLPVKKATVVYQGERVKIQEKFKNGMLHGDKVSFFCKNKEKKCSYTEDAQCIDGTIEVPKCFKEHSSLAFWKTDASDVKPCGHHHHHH : > 40 µM
2. -2345: recombinant β2GPI deletion mutant with domains 2-5 (protein) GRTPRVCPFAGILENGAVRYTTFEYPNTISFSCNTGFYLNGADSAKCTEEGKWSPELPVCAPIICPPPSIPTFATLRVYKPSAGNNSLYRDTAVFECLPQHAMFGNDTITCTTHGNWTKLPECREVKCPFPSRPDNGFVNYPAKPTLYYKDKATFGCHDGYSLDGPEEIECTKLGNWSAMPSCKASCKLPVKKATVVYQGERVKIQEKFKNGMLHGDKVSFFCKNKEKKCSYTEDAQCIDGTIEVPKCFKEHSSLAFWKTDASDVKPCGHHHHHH : > 57 µM

Moving on to another molecule below.
Read the entry 12---: recombinant β2GPI deletion mutant with domains 1 and 2 (protein) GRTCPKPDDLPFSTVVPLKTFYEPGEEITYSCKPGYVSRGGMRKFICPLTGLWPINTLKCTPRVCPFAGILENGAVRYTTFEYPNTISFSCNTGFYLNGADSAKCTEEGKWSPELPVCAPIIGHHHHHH and write its reported IC50.
> 10 µM
